Please go through the items and note down their pIC50.
- target-under-test: glucosylceramide synthase (GCS) (Homo sapiens)
- Construct: The obtained supernatant was used
- Sequence (Q16739 1-394): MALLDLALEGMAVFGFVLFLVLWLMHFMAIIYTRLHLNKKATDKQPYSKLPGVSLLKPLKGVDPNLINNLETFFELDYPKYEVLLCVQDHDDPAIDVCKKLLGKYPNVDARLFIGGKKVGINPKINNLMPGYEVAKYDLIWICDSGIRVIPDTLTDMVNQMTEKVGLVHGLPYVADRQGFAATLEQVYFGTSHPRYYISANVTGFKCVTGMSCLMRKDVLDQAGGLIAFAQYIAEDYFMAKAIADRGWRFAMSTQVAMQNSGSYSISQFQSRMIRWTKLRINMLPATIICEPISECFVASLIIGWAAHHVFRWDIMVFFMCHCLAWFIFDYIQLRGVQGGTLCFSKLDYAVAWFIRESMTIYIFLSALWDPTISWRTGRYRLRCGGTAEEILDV
- protocol-notes: GCS enzyme inhibition assay (A549 cell lysate, NBD C6-ceramide, HPLC fluorescence)
- assay-setup: inhibitory activity against GCS, 37° C., 90 minutes
- Method: Ibiglustat, known as a GCS inhibitor, was used as a control. After the cells attached to the culture dish were washed with phosphate buffered saline (PBS), the cells were scraped off with a cell scraper and then centrifuged (4000 rpm, 3 min, 4° C.) to collect the cells in a 50 ml tube. […] The obtained supernatant was used for the quantitative analysis of proteins. The amount of proteins was measured using the BCA protein assay kit, using bovine serum albumin as a standard. […]
Here pIC50 is given on a logarithmic scale as minus log10 of the concentration in mol/L.

Request: Form field: reported pIC50 of O=C(NC1CCOc2cc(-c3cc4ccccc4o3)ccc21)O[C@@H]1CN2CCC1CC2 (stereo partly shown)
Response: 8.04

Request: Form field: reported pIC50 of O=C(NC1CCSc2ccc(-c3ccc(Cl)cc3)cc21)O[C@@H]1CN2CCC1CC2 (stereo partly shown)
Response: 7.44

Request: Form field: reported pIC50 of COc1ccc(-c2cc3c(cc2F)C(NC(=O)O[C@@H]2CN4CCC2CC4)C(C)(C)CO3)c(F)c1 (stereo partly shown)
Response: 9.77

Request: Form field: reported pIC50 of COc1ccc(-c2ccc3c(c2)OCCC3NC(=O)O[C@@H]2CN3CCC2CC3)cc1 (stereo partly shown)
Response: 8.08

Where these numbers come from: patent US12673944B2
